Read-out: Urokinase-type plasminogen activator receptor (uPAR), PLAUR (gene 5329)
Assay: BSK_BE3C_uPAR: BioMAP Diversity Plus: BE3C Assay for Urokinase-type plasminogen activator receptor (uPAR) Biomarker Activity (AID 2283039)
Details: primary human bronchial epithelial cells; actives raise or lower the signal
Experimental: BSK_BE3C is a cell-based, multiplexed-readout assay that uses bronchial epithelial cell, a human lung primary cell, with measurements taken at 24 hours after chemical dosing in a 96-well plate.BSK_BE3CAR is an assay component measured in the BSK_BE3C assay. It measures uPAR antibody related to regulation of gene expression using ELISA technology.Data from the assay component BSK_BE3CAR was analyzed into 1 assay endpoint. […]
Activity calls are given as the source filed them. How the source made its calls: active means hit-call score of the fitted dose curve at least 0.9, where 1 is the maximum; inactive means score below 0.9.
Field 'call' accepts Yes for active, No for inactive

Prompt: Test call for this molecule, please: `Cc1c(-c2cccnc2)c2ccccc2n1CCCCC(=O)O`
Completion: No

Prompt: COc1ccc(-n2nc(C(F)F)cc2-c2ccc(S(C)=O)cc2)cc1 (stereo unspecified) ?
Completion: No

Prompt: `CCCN(C1CCN(C(=O)C2CCNCC2)CC1)[C@@H]1CCc2ccc(OC)cc2C1` ?
Completion: No

Prompt: `CCCCCCCCO` ?
Completion: No

Prompt: `CC[C@H]1OC(=O)[C@H](C)[C@@H](O[C@H]2C[C@@](C)(OC)[C@@H](O)[C@H](C)O2)[C@H](C)[C@@H](O[C@@H]2O[C@H](C)C[C@H](N(C)C)[C@H]2O)[C@](C)(O)C[C@@H](C)C(=O)[C@H](C)[C@@H](O)[C@]1(C)O` ?
Completion: No

Prompt: `CC(C)CCCCCCOC(=O)c1ccc(C(=O)OCCCCCCC(C)C)c(C(=O)OCCCCCCC(C)C)c1` ?
Completion: No

Prompt: `CCOc1cccc(-n2cc(C(=O)N3CCN(c4cc(C(=O)O)c5ccccc5c4)CC3)nc2-c2ccc(C)cc2)c1` ?
Completion: Yes

Prompt: `Cc1ccc(S(=O)(=O)O)cc1C` ?
Completion: No

Prompt: CC/C(=C\C(=N/O)C(N)=O)C(C)[N+](=O)[O-] (stereo unspecified) ?
Completion: No

Prompt: `Clc1nc(Cl)c(Cl)c(Cl)c1Cl` ?
Completion: No

Prompt: `COc1cccc(-c2ccc(/C=C\CN3CCCCCC3)cc2Cl)c1` ?
Completion: Yes

###

read-out: Plasminogen activator inhibitor-1 (PAI1), SERPINE1 (gene 5054); experiment: BSK_BE3C_PAI1: BioMAP Diversity Plus: BE3C Assay for Plasminogen activator inhibitor-1 (PAI1) Biomarker Activity (AID 2283037); details: primary human bronchial epithelial cells; actives raise or lower the signal
Calls of active or inactive are those of the source. Rule for the calls: active = hit-call score of the fitted dose curve at least 0.9, where 1 is the maximum; inactive = score below 0.9.
Field 'call' accepts active, inactive

Prompt: Test call for this compound, please: `CCOC(=O)CC(CC(=O)OCC)(OC(C)=O)C(=O)OCC`
Completion: inactive

Prompt: CCCCC(CC)COC(=O)c1ccc(C(=O)OCC(CC)CCCC)cc1 (stereo not drawn) ?
Completion: inactive

Prompt: CC/C(=C\C(=N/O)C(N)=O)C(C)[N+](=O)[O-] (stereo not drawn) ?
Completion: inactive

Prompt: `CC1(C)C(=O)N(Br)C(=O)N1Br` ?
Completion: inactive

Prompt: `Cc1c(-c2cccnc2)c2ccccc2n1CCCCC(=O)O` ?
Completion: inactive

Prompt: `O=C1CCCCCN1` ?
Completion: inactive

Prompt: `O=C(O)c1cccc(N(Cc2cccnc2)c2ccc(OC(F)F)c(OC(F)F)c2)c1` ?
Completion: active

Prompt: `CC[C@H]1CC[C@H](NCc2cc3c(cc2OC)[C@H]2C[C@H]2C(=O)N3C)[C@H](c2ccccc2)N1` ?
Completion: inactive

Prompt: O=C(O)CC(O)C(=O)O (stereo not drawn) ?
Completion: inactive

Prompt: CCOC(=O)c1ccc(C2CCC(NC[C@H](O)COc3ccc(O)c(NS(C)(=O)=O)c3)CC2)cc1 (stereo partly drawn) ?
Completion: inactive

Prompt: `Nc1ccc(Nc2ccccc2)cc1` ?
Completion: inactive

Prompt: `CCC(C)(C)C(=O)O[C@H]1C[C@@H](C)C=C2C=C[C@H](C)[C@H](CC[C@@H]3C[C@@H](O)CC(=O)O3)[C@H]21` ?
Completion: active

Prompt: `COc1cccc(-c2ccc(/C=C\CN3CCCCCC3)cc2Cl)c1` ?
Completion: inactive

Prompt: `CC(C)CCO` ?
Completion: inactive

Prompt: O=c1[nH]c2ccc(S(=O)CCN3CCC(Cc4ccc(F)cc4)CC3)cc2o1 (stereo not drawn) ?
Completion: inactive

Prompt: `CC(C)CCCCCCCOC(=O)CCCCC(=O)OCCCCCCCC(C)C` ?
Completion: inactive

Prompt: `Cc1ccc(O)cc1` ?
Completion: inactive

Prompt: `CCOc1cccc(-n2cc(C(=O)N3CCN(c4cc(C(=O)O)c5ccccc5c4)CC3)nc2-c2ccc(C)cc2)c1` ?
Completion: active
